All figures here come from patent US7998940B2.

Listing of entries alongside the reported Screen Rabbit/No Protein.
- Tested on: rabbit vWF A1 domain (SEQ ID NO 6)
- Sequence (as listed by the source): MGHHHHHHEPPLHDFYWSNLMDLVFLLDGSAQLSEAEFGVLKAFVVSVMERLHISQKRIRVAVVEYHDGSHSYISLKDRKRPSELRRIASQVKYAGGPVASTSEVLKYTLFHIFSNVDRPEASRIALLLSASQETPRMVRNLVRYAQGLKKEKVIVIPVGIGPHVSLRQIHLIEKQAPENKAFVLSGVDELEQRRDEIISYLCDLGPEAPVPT
- assay: 3-point dot blot screen, rabbit vWF A1 domain
- Format: binding
- conditionNotes: 3-point dot blot screen, 20 nM rabbit vWF A1 domain; ratio of fraction of aptamer bound with target protein to fraction bound without protein
Lab note: record the figure alone, no unit after it.

AMX236.F7: DNA SELEX 2 aptamer clone (nucleic acid, DNA, backbone not given here, DNA SELEX 2 aptamer clone) CTACCTACGATCTGACTAGCCCCCACTTATCGTGTACCTTATGATATGTCGAATACTCTTGCTTACTCTCATGTAGTTCC; 1.20
AMX237.G6: DNA SELEX 2 aptamer clone (nucleic acid, DNA, backbone and methylation of C not given here, DNA SELEX 2 aptamer clone) DNA: CTACCTACGATCTGACTAGCGTGCAGTGCCTATTCCAGGCCGTGCGGTGCCTCCGTCACGCTTACTCTCATGTAGTTCC; 3.63
AMX237.E5: DNA SELEX 2 aptamer clone (nucleic acid, DNA, backbone not given here, DNA SELEX 2 aptamer clone) DNA: CTACCTACGATCTGACTAGCTTTCAGTCTTCTACATTTATAGGGTTTGGCATTGGGTCTGGCTTACTCTCATGTAGTTCC; 1.15

Exam item: Reported Screen Rabbit/No Protein for AMX236.G4: DNA SELEX 2 aptamer clone (nucleic acid, DNA, backbone not given here, DNA SELEX 2 aptamer clone) CTACCTACGATCTGACTAGCTTGGTAGCGACTTTGTGGAGATGCGGTTTGGTTGACGTCAGCTTACTCTCATGTAGTTCC : what is it?
Marked response: 1.72

Exam item: Reported Screen Rabbit/No Protein for AMX238.D9: DNA SELEX 2 aptamer clone (nucleic acid, DNA, backbone not given here, DNA SELEX 2 aptamer clone) DNA: CTACCTACGATCTGACTAGCCAGTTCTGGGAAAAATCATTTTTTATTTCGATCGTATTTGCTTACTCTCATGTAGTTCC : what is it?
Marked response: 0.97

Exam item: Reported Screen Rabbit/No Protein for AMX238.E9: DNA SELEX 2 aptamer clone (nucleic acid, DNA, backbone not given here, DNA SELEX 2 aptamer clone) DNA: CTACCTACGATCTGACTAGCGTGCAGTGCCCATCTTAGGCCGTGCGGTGCCTCCGTCACGCTTACTCTCATGTAGTTCC : what is it?
Marked response: 3.36
